Experiment: RP, 150 × 2.1 mm, 2.6 µm, 40 °C, 0.35 mL/min, estimated dead time 0.94 min; A: water + 0.1% formic acid, pH 3; B: acetonitrile + 0.1% formic acid, pH 3; gradient (min/%B) 0/0 1/0 12.5/100 14/100 14.2/0 15/0
Conditions: stereoisomer not certain
# reported LC retention time; entries follow
Experimental Readout: LC retention time

[[record]]
molecule = "COc1ccc(C2CC(=O)c3c(O)cc(OC4OC(COC5OC(C)C(O)C(O)C5O)C(O)C(O)C4O)cc3O2)cc1O (stereo not drawn) [Hesperidin]"
result = "6 min"

[[record]]
molecule = "O=C(O)c1cc2ccccc2[nH]1 [2-Indolecarboxylic acid]"
result = "6.06 min"

[[record]]
molecule = "Cc1cc(=O)oc2cc(O)ccc12 [4-methylumbelliferone]"
result = "6.41 min"

[[record]]
molecule = "COc1cc(C=O)cc(OC)c1O [Syringaldehyde]"
result = "5.74 min"

[[record]]
molecule = "COc1cc(C=CC(=O)O)cc(OC)c1O [Sinapic acid]"
result = "2.81 min"

[[record]]
molecule = "O=c1ccc2ccc(O)cc2o1 [Umbelliferone]"
result = "5.77 min"

[[record]]
molecule = "O=C(O)C(O)CCc1ccccc1 (stereo not drawn) [2-hydroxy-4-phenylbutyric acid]"
result = "6.54 min"

[[record]]
molecule = "O=C(OC1Cc2c(O)cc(O)cc2OC1c1cc(O)c(O)c(O)c1)c1cc(O)c(O)c(O)c1 (single isomer, unassigned; (-)) [(-)-Epigallocatechin gallate]"
result = "5.08 min"

